Provenance of the data: paper PMC2756588

Biological target: T1, Hof1, Q05080
T1 sequence (Q05080 590-669, looked up): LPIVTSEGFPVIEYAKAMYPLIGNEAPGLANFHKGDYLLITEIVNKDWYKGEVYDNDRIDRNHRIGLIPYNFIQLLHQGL
Assay: SPOT array
Details: median of control spots 4086
metric: SPOT intensity

Worked cases, answers included:
IKKRNKIRLPSGSPE 6
KDKSRPPRPPPKPLH 0

[a] EAEEAAPQLPSRSSA
[b] RKLRTVPGVPLIHLT
Given the listed records, identify the one among a and b with higher SPOT intensity. Please indicate the selected item by its label.
b
